meta.source: the DeepSol protein solubility set

test: soluble on expression in E. coli; label from the status in PepcDB or PDB records

| residue_codes | soluble on expression in E. coli |
| --- | --- |
| MSCVHYKFSSKLNYDTVTFDGLHISLCDLKKQIMGREKLKAADSDLQITNAQTKEEYTDDNALIPKNSSVIVRRIPIGGVKSTSKTYVISRTEPVMGTTKAVCKNTITLFLHNCFYLYNVSVT | not soluble |
| MGSDKIHHHHHHMTGSNKVIISCAVTGSIHTPTMTPYLPITSTEIANAATGAIDAGAAIVHLHARHPDDGRPDQTVGAFRPFIEHIKAHTDGIINLTTGGAPTMSVEERLQPALHLKPEIASLNMGSMNFGLFPMLNRYKEFKHEWERHYLEGTRDLVFRNTFKDIEYVLSSCTGNDTRFEFECYDTAHLYNLAHFLDRKLVTPPLFVQTVFGILGGIGSHADDVAHMKRTADRLFGSNYVWSVLGAGRAQMPVASIAAAQGGNVRVGIEDSIWNGPGQLAKANSDQVRRVRQILEGMGLAIATPDEARTLLHLKGRNNVAF | not soluble |

====

assay: soluble on expression in E. coli; label from the status in PepcDB or PDB records

| residue_codes | soluble on expression in E. coli |
| --- | --- |
| GPGSMEATVAPSTGLRQLRRVRRARTQYERLQRPDDIQPGYPIPSIEGWVLFFSNLPETTTQEDIANYLVSFKEGDPDYFGAITDIKIPLNADCFCAGYALVELEDRAGYERAIAELNGTVFPSADKPLVVAPTFLGEEEEQEPQAEEVAPGEKRARD | soluble |
| GSHMLHWGPKYWRSLHLYAIFFSDAPSWKEKYEAIQWILNFIESLPCTRCQHHAFSYLTKNPLTLNNSEDFQYWTFAFHNNVNNRLNKKIISWSEYKNIYEQSILK | soluble |

====

assay: soluble on expression in E. coli; label from the status in PepcDB or PDB records

| residue_codes | soluble on expression in E. coli |
| --- | --- |
| AMGQTVTTPLSLTLGHWKDVERIAHNQSVDVKKRRWVTFCSAEWPTFNVGWPRDGTFNRDLITQVKIKVFSPGPHGHPDQVPYIVTWEALAFDPPPWVKP | soluble |
| TASIGAAAILGAPIMHDFCHISLSDLMTPWEVIEKRLRLAAEADFVICLYNPRSKGRSEHLSKAFKIMGEFKGGDTPVGVVKDVGREKEEKFVCTFENMDFEKVDMTTMVIIGNKSTY | not soluble |
| GPLGSEVMGPVEAAPEYRVIVDANNLTVEIENELNIIHKFIRDKYSKRFPELESLVPNALDYIRTVKELGNSLDKCKNNENLQQILTNATIMVVSVTASTTQGQQLSEEELERLEEACDMALELNASKHRIYEYVESRMSFIAPNLSIIIGASTAAKIMGVAGGLTNLSKMPACNIMLLGAQRKTLSGFSSTSVLPHTGYIYHSDIVQSLPPDLRRKAARLVAAKCTLAARVDSFHESTEGKVGYELKDEIERKFDKWQE | soluble |
| MQAEGEKSDKISKISTGIPRVDELLYGGFDGRDNIVVSGNNFSQKRSFIYNFIKSSANSGMKVIIINVDGSSESLLADLARRGTDLENIILLDGFSKNFQEKVPPNAEVIDDPSNVSSVLKQYMLRAQKEKDFIFVFLSATPYLMDFNDQNRKFFVQLVHWNRKNSLLSTYVLDDFVGQTTAEWFAYMMDFSLYFKNDGDYDYMRVLSLKPVRTKDWIRIYKDSDVFTLGSFNVERIR | not soluble |

====

experiment: soluble on expression in E. coli; label from the status in PepcDB or PDB records
outcome_measure: soluble on expression in E. coli

Here are 8 sequences together with their reported answers.
| residue_codes | soluble on expression in E. coli |
| --- | --- |
| MFGYRSNVPKVRLTTDRLVVRLVHDRDAWRLADYYAENRHFLKPWEPVRDESHCYPSGWQARLGMINEFHKQGSAFYFGLFDPDEKEIIGVANFSNVVRGSFHACYLGYSIGQKWQGKGLMFEALTAAIRYMQRTQHIHRIMANYMPHNKRSGDLLARLGFEKEGYAKDYLLIDGQWRDHVLTALTTPDWTPGR | not soluble |
| DKSNKLQNLVAEQLVGCGFNEILNNSLTRAAYYDGLESYPSKNLVMLLNPLSADLNCMRQTLLFGGLESIAHNANRKNADLKFFEFGNCYHFDAEKKNPEKVLAPYSEDYHLGLWVTGKMVSNSWAHADENTSVYELKAYVENIFKRLGLDLHSLVVGNLSDDIYSTALTVNTKGGKRLATFGVVTKKMLKAFDVDNEVYYADLNWK | not soluble |
| MKKPPLNICILRLSAIGDVCHTLAVIQAIQRQYPDIKISWIIGKTEAHLMQGIHNVELIPYDKKSGWQGIITLWKQLRNKRFDFLLNMQTALRASMLSLGIKATHKIGFNKDRAREMQSLFVDSQVEMTASPHVLDGQMMFAKAIGVTDLTPRWHLPVSSADLAYSNQFLNPHTQNVVIAPCSSKTEKDWDIASNAEIAKWLTDQNINVIIVGSPTDYECATANQIKQLAPKVINTTGKTTLKQLAALIKQVDLVIAPDTGVAHIATTQHTRVIGLYAIHNPRRTAPYSDQANVISVYDQAILDYYGTSWDKLAWATKAKSKKGEKLMQRITVEEVKQKIVETLNLKL | not soluble |
| VTTRDLTAAQFNETIQSSDMVLVDYWASWCGPCRAFAPTFAESSEKHPDVVHAKVDTEAERELAAAAQIRSIPTIMAFKNGKLLFNQAGALPPAALESLVQQLKAYEVEAGEATTQNGRAQQA | soluble |
| MKKFDGVIFDMDGLLFDTELIYYTSTQKVADAMGLPYSKEVYLDYVGISDEEVQENYRRIYASYGHDTVEEFIRRSYDDTLQEFRSGNVPLKPGVVEFLDFLDDQKIPRLVASSNVRPAIEMLLSHAGIQDRFVGIVSAEDVKRAKPDPEIFQKARQLLGTEAPKTLIFEDSFHGVSAAHSAGIPVIMVPDLLQPTEVIQEKTLHVLESLHQAPHYLK | not soluble |
| MEHLSQDEVIRLASTPCSAPALKRAFLFSCLTALRKSDIKKLTWEEIQPYGSDGVMYVTTRMQKTKDIVHNPISEEALELIGYSPDKRGKVFPDFKDSMTQAPLKNWLKDAGITKHISYHCSRHSFACLQLDAGTSIAVVQRYLGHKNVATTEVYAKISDAQKRASVGLEHHHHHH | not soluble |
| KIDDGTELKLKGEKLRYVSRGGLKLEKALAVFNLSVEDMITIDIGASTGGFTDVMLQNGAKLVYAVDVGTNQLVWKLRQDDRVRSMEQYNFRYAEPVDFTEGLPSFASIDVSFISLNLILPALAKILVDGGQVVALVKPQFEAGREQIGKNGIVRESSIHEKVLETVTAFAVDYGFSVKGLDFSPIQGGHGN | not soluble |
| SNRTSAKSNLMLILLGLQMKEISNSDLYKLKEVRSVVTSLASFLFQQQNVGVMKSFDSLEKEAFRDLVNRLVSQGLIGLKDKTSETFDLLPLKNLFEYAEKRISVLMKLQCYTGTVQLSHVQEKLHLPYITTNGIVDVFKECLKRTKKQYPEVLKNWWIDLDPKNGMEDQNSGILLHLEYAAAYS | soluble |

Give its soluble on expression in E. coli value. Item: MPEILKVKPTRMELLKLKRRVKLAERGHKLLKEKQDALIMEFFTIYDEALSMRRELIKKIGEAFEALRLAQVEVGSVRLKEIAIGVNPNKEIEVRSRNIMGVRVPLIEVPELKRKPSERGYAFISTSSAVDVAAEKFEEVLELAIRLAEVEESLKRLGKEIEKTKRRVNALEYIIIPRMKNTIKFIEQHLDEMERENFFRLKRIKALLEARESMLEHHHHHH
not soluble

What do you have for METEEWFFKGISRKDAERQLLAPGNMLGSFMIRDSETTKGSYSLSVRDYDPRQGDTVKHYKIRTLDNGGFYISPRSTFSTLQELVDHYKKGNDGLCQKLSVPCMSSK ?
soluble

====

assay: soluble on expression in E. coli; label from the status in PepcDB or PDB records

| residue_codes | soluble on expression in E. coli |
| --- | --- |
| MGSDKIHHHHHHMTTDHPSAYCFFQDLAPRPPLDAAFDRDYLLYAIRGALRVSVAGESWLLPPSFAAWLPANTPISVDIDKPVTTCSVLARPGLCTGLPEKACVFQMSPMARQMIHYCKDWGPDAAHPAQAEGFFLALLHVCADLAVKSVDVKRPTATDPVLRKAIDITEAHLAQAITANEIARKVNLSERSMQRHFQMDVGMTWSQTLTQLRMIHAVALLAEGKLSIIQIAGYTGFQSLSAFNRAFRTFAATTPTKFRKALLD | not soluble |
| GPGSMWTTSMALMSKRSMKYQTKLRHRFRNPSVLPLKQTKAQRDETIRSVLQVRNINPANQSSYRYVEQRLYSTGSRLDREGVKLNTTYALQGLGDLEPLRNSKSFGFSEREALKYDSLQQAAKYEAPPVPFTPLAARKLAEGKLWPSAPEPDGMLSKEVPYLRHRANMSPSAQTFADKIAYHLRRSLKACPAHIAEQMDFAQLIIEEVIASRRSKLVYIVWATVDPAARFAMEPQLHRLNHWVQRLIMERIRTRPNIPQIAWVWNGGRLERELPRELKEEMQAYASDNSSTLEMRVRYLKEMDTVNQRMRNIPWFMPYLWSKEEKAGKTRRMRKDLEEYEQRRLAAKKDQRESERDMSGRSVAPQIGAPPAYVR | not soluble |
